Origin of measurements: the supplement of paper PMC10567573

B1: CDS2 (parent)
chain: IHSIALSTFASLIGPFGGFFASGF

# Variants of: B1
# Procedure Details: protein stability index of a GFP-peptide fusion (GPS, HEK-293T) (PSI 1-6); higher = more stable;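 further: lentivirally expressed fusions sorted by FACS into six bins by GFP to DsRed ratio, PSI derived from sequencing read proportions per bin multiplied by bin number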
# Measurement Context: c terminus: a fixed tail appended
Measured Attribute: protein stability index

# Variant Code, Measured Attribute, Value Measured
rows = [
    ("L6C", "protein stability index", 2.06),
    ("F9S", "protein stability index", 3.33),
    ("G17C", "protein stability index", 3.58),
]
